# ASSAY_METHOD_TEXT: Pharmacokinetic test in mice (low dose)
# Assay type: in vivo, Balb/c mice
# CONDITION_SET: mouse, in vivo; mice, PO 10 mg/kg; read-out: T1/2 (converted)
READOUT: log10 half-life (log10 of the value in h)
log10 half-life, h

{"COMPOUND_SMILES": "Cc1ccc(Oc2ccc(C(F)(F)F)cc2)c2ccc(P(C)(C)=O)cc12", "REPORTED_MEASUREMENT": 1.21}
{"COMPOUND_SMILES": "CP(C)(=O)c1ccc2c(c1)c1ccccc1n2-c1ccc(C(F)(F)F)cc1", "REPORTED_MEASUREMENT": 0.59}
{"COMPOUND_SMILES": "CP(C)(=O)c1cnc(Nc2ccc(C(F)(F)F)cc2)c(-c2cn3c(n2)CCC3)c1", "REPORTED_MEASUREMENT": 0.88}
{"COMPOUND_SMILES": "Cn1cnc(-c2cc(P(C)(C)=O)cnc2Nc2ccc(C(F)(F)F)cc2)c1", "REPORTED_MEASUREMENT": 1.53}
{"COMPOUND_SMILES": "Cn1cnc(-c2cc(P(C)(C)=O)ccc2Nc2ccc(C(F)(F)F)cc2)c1", "REPORTED_MEASUREMENT": 1.09}
{"COMPOUND_SMILES": "CP(C)(=O)c1cnc(Oc2ccc(C(F)(F)F)cc2)c(-c2cn3c(n2)CCC3)c1", "REPORTED_MEASUREMENT": 0.28}
{"COMPOUND_SMILES": "Cn1cc2c3cc(P(C)(C)=O)ccc3n(-c3ccc(C(F)(F)F)cc3)c2n1", "REPORTED_MEASUREMENT": 0.49}

We now examine a further molecule.
Ask: Identify measured log10 half-life associated with CP(C)(=O)c1ccc2c(Oc3ccc(C(F)(F)F)cc3)cccc2c1
Result: 2.16

---

# ASSAY_METHOD_TEXT: Pharmacokinetic test in mice (low dose)
# Format: in vivo, Balb/c mice
# CONDITION_SET: mouse, in vivo; mice, PO 10 mg/kg; read-out: AUClast
# AUC(0-t) per record follows
The reply should be a number in µM·h, with the unit left off.

Previously resolved entries follow.
{"COMPOUND": "Cc1ccc(Oc2ccc(C(F)(F)F)cc2)c2ccc(P(C)(C)=O)cc12 [Example 24]", "REPORTED_MEASUREMENT": 133}
{"COMPOUND": "Cn1cnc(-c2cc(P(C)(C)=O)cnc2Nc2ccc(C(F)(F)F)cc2)c1 [Example 8]", "REPORTED_MEASUREMENT": 119}
{"COMPOUND": "Cn1cc2c3cc(P(C)(C)=O)ccc3n(-c3ccc(C(F)(F)F)cc3)c2n1 [Example 16]", "REPORTED_MEASUREMENT": 63.5}
{"COMPOUND": "CP(C)(=O)c1cnc(Oc2ccc(C(F)(F)F)cc2)c(-c2cn3c(n2)CCC3)c1 [Example 9]", "REPORTED_MEASUREMENT": 30.5}

We now examine a further compound.
Ask: Identify measured AUC(0-t) associated with CP(C)(=O)c1ccc2c(Oc3ccc(C(F)(F)F)cc3)cccc2c1 [Example 7]
Result: 267

---

# AUC(0-t) per record follows
# ASSAY_METHOD_TEXT: in vivo
# CONDITION_SET: mouse, plasma, po, 100 mg/kg
The reply should be a number in µM·h, with the unit left off.

{"MOLECULE": "CP(C)(=O)c1ccc2c(Oc3ccc(C(F)(F)F)cc3)cccc2c1 [Example 7]", "UNIT_LABEL": "µM·h", "AUC(0-t)": 2830}

We now examine a further molecule.
Ask: Identify measured AUC(0-t) associated with Cc1cc(Oc2ccc(C(F)(F)F)cc2)c2ccc(P(C)(C)=O)cc2c1 [Example 29]
Result: 2160

---

# ASSAY_METHOD_TEXT: Pharmacokinetic test in mice (low dose)
# Format: in vivo, Balb/c mice
# CONDITION_SET: mouse, in vivo; mice, PO 10 mg/kg vs IV 2 mg/kg; read-out: F%
# bioavailability per record follows
The reply should be a number in %, with the unit left off.

Previously resolved entries follow.
{"COMPOUND": "CP(C)(=O)c1ccc2c(Oc3ccc(C(F)(F)F)cc3)cccc2c1 [Example 7]", "bioavailability (%)": 106}
{"COMPOUND": "CP(C)(=O)c1ccc2c(c1)c1ccccc1n2-c1ccc(C(F)(F)F)cc1 [Example 1]", "bioavailability (%)": 118}

Ask: Identify measured bioavailability associated with Cc1ccc(Oc2ccc(C(F)(F)F)cc2)c2ccc(P(C)(C)=O)cc12 [Example 24]
Result: 120

Ask: Identify measured bioavailability associated with CP(C)(=O)c1cnc(Oc2ccc(C(F)(F)F)cc2)c(-c2cn3c(n2)CCC3)c1 [Example 9]
Result: 111

---

# Tested on: MSTO-211H (NF2 wide-type)
# ASSAY_METHOD_TEXT: Inhibition of cell proliferation (CellTiter-Lumi)
# Format: cell-based
# CONDITION_SET: Homo sapiens, 72 h + another 72 h treatment
# IC50 per record follows

{"COMPOUND": "CP(C)(=O)c1ccc(Nc2ccc(C(F)(F)F)cc2)c(-c2ccccn2)c1 [Example 10]", "STUDY_TARGET": "MSTO-211H (NF2 wide-type)", "REPORTED_MEASUREMENT": "> 1250 nM"}
{"COMPOUND": "Cn1cnc(-c2cc(P(C)(C)=O)ccc2Nc2ccc(C(F)(F)F)cn2)c1 [Example 13]", "STUDY_TARGET": "MSTO-211H (NF2 wide-type)", "REPORTED_MEASUREMENT": "> 20000 nM"}
{"COMPOUND": "CP(C)(=O)c1cnc(Nc2ccc(C(F)(F)F)cc2)c(-n2cccn2)c1 [Example 18]", "STUDY_TARGET": "MSTO-211H (NF2 wide-type)", "REPORTED_MEASUREMENT": "> 1250 nM"}
{"COMPOUND": "CP(C)(=O)c1ccc2c(c1)c1ncccc1n2-c1ccc(C(F)(F)F)cc1 [Example 4]", "STUDY_TARGET": "MSTO-211H (NF2 wide-type)", "REPORTED_MEASUREMENT": "> 1250 nM"}
{"COMPOUND": "CP(C)(=O)c1ccc(Nc2ccc(C(F)(F)F)cc2)c(-c2ncccn2)c1 [Example 12]", "STUDY_TARGET": "MSTO-211H (NF2 wide-type)", "REPORTED_MEASUREMENT": "> 20000 nM"}

Ask: Identify measured IC50 associated with CP(C)(=O)c1ccc2c(c1)c1cccnc1n2-c1ccc(C(F)(F)F)cc1 [Example 5]
Result: > 5000 nM

Ask: Identify measured IC50 associated with CP(C)(=O)c1cnc(Nc2ccc(C(F)(F)F)cc2)c(-n2cc(C(F)(F)F)cn2)c1 [Example 20]
Result: > 1250 nM

Ask: Identify measured IC50 associated with CP(C)(=O)c1ccc2c(c1)c1nccnc1n2-c1ccc(C(F)(F)F)cc1 [Example 19]
Result: 628 nM

---

# half-life per record follows
# ASSAY_METHOD_TEXT: Pharmacokinetic test in rats
# Assay type: in vivo
# CONDITION_SET: rat, plasma; SD rats, IV 2 mg/kg
The reply should be a number in h, with the unit left off.

Previously resolved entries follow.
{"COMPOUND": "CP(C)(=O)c1ccc(Nc2ccc(C(F)(F)F)cc2)c(-c2ccccn2)c1 [Example 10]", "REPORTED_MEASUREMENT": 19}
{"COMPOUND": "CP(C)(=O)c1ccc2c(c1)c1ccccc1n2-c1ccc(C(F)(F)F)cc1 [Example 1]", "REPORTED_MEASUREMENT": 32.4}
{"COMPOUND": "CP(C)(=O)c1cnc(Nc2ccc(C(F)(F)F)cc2)c(-c2cn3c(n2)CCC3)c1 [Example 22]", "REPORTED_MEASUREMENT": 5.8}
{"COMPOUND": "CP(C)(=O)c1ccc(Nc2ccc(C(F)(F)F)cc2)c(-c2ncccn2)c1 [Example 12]", "REPORTED_MEASUREMENT": 54.2}
{"COMPOUND": "Cn1cnc(-c2cc(P(C)(C)=O)ccc2Nc2ccc(C(F)(F)F)cc2)c1 [Example 14]", "REPORTED_MEASUREMENT": 8.1}

Ask: Identify measured half-life associated with CP(C)(=O)c1ccc2c(Oc3ccc(C(F)(F)F)cc3)cccc2c1 [Example 7]
Result: 15.7

Ask: Identify measured half-life associated with Cn1cnc(-c2cc(P(C)(C)=O)cnc2Nc2ccc(C(F)(F)F)cc2)c1 [Example 8]
Result: 6.2

---

# ASSAY_METHOD_TEXT: Pharmacokinetic test in rats
# Format: in vivo
# CONDITION_SET: rat, plasma; SD rats, PO 10 mg/kg
READOUT: AUC(0-t) (µM·h)
The reply should be a number in µM·h, with the unit left off.

{"COMPOUND_SMILES": "CP(C)(=O)c1ccc(Nc2ccc(C(F)(F)F)cc2)c(-c2ncccn2)c1", "AUC(0-t) / µM·h": 114}
{"COMPOUND_SMILES": "CP(C)(=O)c1ccc2c(Oc3ccc(C(F)(F)F)cc3)cccc2c1", "AUC(0-t) / µM·h": 308}
{"COMPOUND_SMILES": "CP(C)(=O)c1cnc(Nc2ccc(C(F)(F)F)cc2)c(-c2cn3c(n2)CCC3)c1", "AUC(0-t) / µM·h": 32.2}
{"COMPOUND_SMILES": "CP(C)(=O)c1ccc(Nc2ccc(C(F)(F)F)cc2)c(-c2ccccn2)c1", "AUC(0-t) / µM·h": 152}
{"COMPOUND_SMILES": "Cn1cnc(-c2cc(P(C)(C)=O)ccc2Nc2ccc(C(F)(F)F)cc2)c1", "AUC(0-t) / µM·h": 83.2}
{"COMPOUND_SMILES": "Cn1cnc(-c2cc(P(C)(C)=O)cnc2Nc2ccc(C(F)(F)F)cc2)c1", "AUC(0-t) / µM·h": 59.3}

We now examine a further compound.
Ask: Identify measured AUC(0-t) associated with CP(C)(=O)c1ccc2c(c1)c1ccccc1n2-c1ccc(C(F)(F)F)cc1
Result: 605
